Target: squalene synthetase (Rattus norvegicus, UniProt Q02769)
Sequence (Q02769 1-416): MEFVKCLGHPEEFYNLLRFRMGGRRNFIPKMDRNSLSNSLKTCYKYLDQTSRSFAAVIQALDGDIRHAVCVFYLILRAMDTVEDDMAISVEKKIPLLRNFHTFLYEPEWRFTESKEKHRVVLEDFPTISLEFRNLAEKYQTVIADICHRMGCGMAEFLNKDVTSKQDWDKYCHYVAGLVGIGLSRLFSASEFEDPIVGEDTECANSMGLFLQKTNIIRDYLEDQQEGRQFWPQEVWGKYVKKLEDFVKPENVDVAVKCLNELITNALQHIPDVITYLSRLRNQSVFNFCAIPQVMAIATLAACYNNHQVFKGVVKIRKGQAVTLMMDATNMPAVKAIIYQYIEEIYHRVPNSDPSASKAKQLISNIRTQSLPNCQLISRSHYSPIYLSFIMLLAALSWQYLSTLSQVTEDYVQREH
QUANTITY_MEASURED: IC50 (nM)

{"columns": ["COMPOUND", "UNIT_ABBREV", "READOUT_VALUE"],
 "data": [
  ["CN(CCCC(P(=O)(O)O)P(=O)(O)O)Cc1ccc(C(=O)c2ccccc2)c(O)c1", "nM", 0.91],
  ["O=P(O)(O)C(CC1CCN(Cc2cccc(/C=C/c3ccccc3)c2)CC1)P(=O)(O)O", "nM", 1.3]
]}

(A) Cc1c(-c2ccccc2)ncn1CCCNC(P(=O)(O)O)P(=O)(O)O
(B) C/C(=C\CN(C)CC(O)CC(C(=O)O)P(=O)(O)O)CCc1ccc2ccccc2c1 (mixture of isomers)
I would appreciate it if you could say which entry, A or B , has the lower IC50 value. Lab log: write the label of the selected item as the result. A
